# key: entry, value: Bliss excess
Test system: NCI-H1435 (Non-Small Cell Lung Carcinoma);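 also: after 72 h of two-drug dosing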
Experiment: Bliss excess, mean over the matrix (fraction); higher = more synergy

Previously resolved entries follow.
Cn1cnc2c(F)c(Nc3ccc(Br)cc3Cl)c(C(=O)NOCCO)cc21 [Selumetinib] + C=CCn1c(=O)c2cnc(Nc3ccc(N4CCN(C)CC4)cc3)nc2n1-c1cccc(C(C)(C)O)n1 [AZD1775] (first compound max 10 µM, partner max 1 µM)	0.0007
C=CCn1c(=O)c2cnc(Nc3ccc(N4CCN(C)CC4)cc3)nc2n1-c1cccc(C(C)(C)O)n1 [AZD1775] + C1CN(CCC1(C(=O)N[C@@H](CCO)C2=CC=C(C=C2)Cl)N)C3=NC=NC4=C3C=CN4 [Capivasertib] (first compound max 3 µM, partner max 3 µM)	0.0011
Cc1cc2ncnn2cc1Nc1ncc2c(n1)n(C1CCOCC1)c(=O)n2C [AZD7648] + COc1cc([C@@H]2c3cc4c(cc3[C@@H](O[C@@H]3O[C@@H]5CO[C@@H](C)O[C@H]5[C@H](O)[C@H]3O)[C@H]3COC(=O)[C@H]23)OCO4)cc(OC)c1O [Etoposide] (first compound max 10 µM, 7x7, partner max 10 µM)	0.0043

Tell me the measured Bliss excess of CCc1c2c(nc3ccc(O)cc13)-c1cc3c(c(=O)n1C2)COC(=O)[C@]3(O)CC [SN-38] + CN(C)CCCOc1ccc(-c2ccc3ncc4c(c3c2)n(C2CCOCC2)c(=O)n4C)cn1 [AZD0156] (first compound max 0.3 µM, 7x7, partner max 1 µM) , please.
-0.026
